The reader will find reported inhibition of ligand binding values listed item by item below.
- Measurement target: Estrogen receptor (Homo sapiens)
- Measurement protocol: ERalpha ligand binders by competition, primary screen, cell-based, Cos7 ERalpha-GFP, flow cytometry (AID 1211);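 also: 0% = DMSO vehicle wells and 100% = no E2-Alexa633 signal left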
- Stated conditions: fluorescent ligand competition, at 10 µM, stronger effect = higher value
Record the value in %, omitting the unit from your answer.

>  <Molecule>
COc1ccc(NC2=CC(c3cccc(OC)c3)N(c3ccc(OC)cc3)C2=O)cc1 (configuration not stated)

>  <inhibition of ligand binding [%]>
48

$$$$
>  <Molecule>
O=C(Nc1sc2c(c1C(=O)O)CCC2)c1ccccc1

>  <inhibition of ligand binding [%]>
15

$$$$
>  <Molecule>
O=C(Nc1ccc2oc(-c3ccc4ccccc4c3)nc2c1)c1cccs1

>  <inhibition of ligand binding [%]>
32

$$$$

IN: Find inhibition of ligand binding for O=c1oc2c(O)c(O)cc3c(=O)oc4c(O)c(O)cc1c4c23 on Estrogen receptor (Homo sapiens) and write it down.
OUT: 0

IN: Find inhibition of ligand binding for CCOC(=O)C1=C(O)/C(=C\c2ccc(CNC(=O)C(=O)Nc3ccccc3)o2)N=C1C on Estrogen receptor (Homo sapiens) and write it down.
OUT: 24

IN: Find inhibition of ligand binding for CCC(Sc1ncnc2sc(C)c(C)c12)C(=O)OC (configuration not stated) on Estrogen receptor (Homo sapiens) and write it down.
OUT: 38

IN: Find inhibition of ligand binding for COc1cc(C(=O)Nc2nnc(-c3sccc3C)s2)cc(OC)c1OC on Estrogen receptor (Homo sapiens) and write it down.
OUT: 2

IN: Find inhibition of ligand binding for COC(=O)c1c(-c2ccncc2)csc1NC(=O)c1ccoc1C on Estrogen receptor (Homo sapiens) and write it down.
OUT: 41

IN: Find inhibition of ligand binding for CCOC(=O)c1ccc(NC(=O)CSc2nc(C)cc(=O)[nH]2)cc1 on Estrogen receptor (Homo sapiens) and write it down.
OUT: 49

IN: Find inhibition of ligand binding for O=C(COC(=O)CCC(=O)c1cccs1)NCc1ccco1 on Estrogen receptor (Homo sapiens) and write it down.
OUT: 42

IN: Find inhibition of ligand binding for CC1(C)Cc2c(sc3c4nnnn4c4nnnn4c23)CO1 on Estrogen receptor (Homo sapiens) and write it down.
OUT: 12

IN: Find inhibition of ligand binding for CC1Cc2ccccc2N1C(=O)CSc1nnc(-c2ccc(S(=O)(=O)N3CCCC3)cc2)o1 (configuration not stated) on Estrogen receptor (Homo sapiens) and write it down.
OUT: 56

* * *

- Measurement target: Estrogen receptor (Homo sapiens) (UniProt P03372)
- Sequence (P03372 whole entry, looked up): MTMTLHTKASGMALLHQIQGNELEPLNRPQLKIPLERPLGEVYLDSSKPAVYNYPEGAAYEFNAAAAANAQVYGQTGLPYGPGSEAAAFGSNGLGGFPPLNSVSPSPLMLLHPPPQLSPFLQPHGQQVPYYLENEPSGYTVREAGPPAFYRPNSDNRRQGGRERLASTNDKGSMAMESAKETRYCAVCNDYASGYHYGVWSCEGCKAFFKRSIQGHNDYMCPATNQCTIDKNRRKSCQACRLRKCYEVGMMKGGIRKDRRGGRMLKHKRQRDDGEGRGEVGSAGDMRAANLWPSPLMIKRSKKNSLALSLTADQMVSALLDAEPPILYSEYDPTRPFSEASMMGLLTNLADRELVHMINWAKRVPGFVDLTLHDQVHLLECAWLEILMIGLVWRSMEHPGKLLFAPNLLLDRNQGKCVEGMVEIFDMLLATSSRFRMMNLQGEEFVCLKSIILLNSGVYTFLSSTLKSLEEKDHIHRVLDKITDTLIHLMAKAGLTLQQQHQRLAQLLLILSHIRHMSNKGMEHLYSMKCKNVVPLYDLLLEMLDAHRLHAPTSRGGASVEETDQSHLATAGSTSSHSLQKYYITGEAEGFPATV
- Measurement protocol: ERalpha ligand binders by competition, primary screen, cell-based, Cos7 ERalpha-GFP, flow cytometry (AID 1211);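 also: 0% = DMSO vehicle wells and 100% = no E2-Alexa633 signal left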
- Stated conditions: fluorescent ligand competition, at 10 µM
Activity calls are given as the source filed them. No rule for the calls is given here.
Just give me one of these, please: True for active, False for inactive

>  <Compound>
O=[N+]([O-])c1ccc(Cl)c2c1C1C=CCC1C(c1ccccn1)N2 (stereo not drawn)

>  <Measurement target>
Estrogen receptor (Homo sapiens) (UniProt P03372)

>  <Cat>
False

$$$$
>  <Compound>
COc1ccc(C2Nc3ccccc3C(=O)N2c2ccc(C)cc2)cc1Cn1cc([N+](=O)[O-])cn1 (stereo not drawn)

>  <Measurement target>
Estrogen receptor (Homo sapiens) (UniProt P03372)

>  <Cat>
False

$$$$
>  <Compound>
Cc1ccc(OCCN2CCN(CC(O)Cn3c4ccccc4c4ccccc43)CC2)cc1 (stereo not drawn)

>  <Measurement target>
Estrogen receptor (Homo sapiens) (UniProt P03372)

>  <Cat>
False

$$$$

IN: Status in this test for Cc1ccc(-n2cc3c(c(C#N)c2=N)CC(C)(C)CC3=O)cc1 ?
OUT: False

IN: Status in this test for O=C(Nc1ccc2oc(-c3ccccc3F)nc2c1)c1cncc(Br)c1 ?
OUT: False

* * *

- Measurement target: Estrogen receptor (Homo sapiens)
- Measurement protocol: ERalpha ligand binders by competition, primary screen, cell-based, Cos7 ERalpha-GFP, flow cytometry (AID 1211);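 also: 0% = DMSO vehicle wells and 100% = no E2-Alexa633 signal left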
- Stated conditions: fluorescent ligand competition, at 10 µM, stronger effect = higher value
The reader will find reported inhibition of ligand binding values listed item by item below.
Record the value in %, omitting the unit from your answer.

IN: Note down inhibition of ligand binding recorded for CC1CCCC(C)N1Cc1c(O)ccc2c3c(c(=O)oc12)CCC3 (stereo not given)
OUT: 13

* * *

- Measurement target: Estrogen receptor (Homo sapiens) (UniProt P03372)
- Measurement protocol: ERalpha ligand binders by competition, primary screen, cell-based, Cos7 ERalpha-GFP, flow cytometry (AID 1211);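 also: 0% = DMSO vehicle wells and 100% = no E2-Alexa633 signal left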
- Stated conditions: fluorescent ligand competition, at 10 µM, stronger effect = higher value
Values of inhibition of ligand binding greater than or equal to 40% map to Fulfilled; values below map to Not fulfilled.

The examples below pair each entry with its known result.
>  <Compound>
O=C1c2ccccc2C(=O)N1CCCc1nc2ccccc2c(=O)n1CCCn1ccnc1

>  <Cat>
Not fulfilled

$$$$
>  <Compound>
Cc1ccccc1Nc1nnc(SCC(=O)NC(=O)NCc2ccco2)s1

>  <Cat>
Fulfilled

$$$$
>  <Compound>
COc1ccc(-c2nn(-c3ccccc3)cc2/C=C2/SC(=S)N(Cc3ccco3)C2=O)c(C)c1

>  <Cat>
Not fulfilled

$$$$
>  <Compound>
Oc1ccc(N=Cc2ccc(O)c(O)c2)cc1

>  <Cat>
Not fulfilled

$$$$
>  <Compound>
Oc1ccc(-c2csc(-c3c[nH]c4ccccc34)n2)c(O)c1

>  <Cat>
Fulfilled

$$$$
>  <Compound>
CCCCN(CCCC)S(=O)(=O)c1ccc(NC(=O)Cc2cccs2)cc1

>  <Cat>
Fulfilled

$$$$
>  <Compound>
CC12CCCCC1(O)[N+](=O)C1=C(CCCC1)N2[O-] (centres undefined)

>  <Cat>
Not fulfilled

$$$$

Consider the additional compound presented here.
IN: I'd appreciate it if you could say whether N#Cc1ccc(-c2cccnc2)nc1SCC(=O)Nc1sc2c(c1C#N)CCC2 has inhibition of ligand binding at least equal to 40%.
OUT: Not fulfilled

* * *

- Measurement target: Estrogen receptor (Homo sapiens) (UniProt P03372)
- Measurement protocol: ERalpha ligand binders by competition, primary screen, cell-based, Cos7 ERalpha-GFP, flow cytometry (AID 1211);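 also: 0% = DMSO vehicle wells and 100% = no E2-Alexa633 signal left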
- Stated conditions: fluorescent ligand competition, binding inhibition, at 0.1 µM, stronger effect = higher value
Metric: inhibition of ligand binding (%)
Record the value in %, omitting the unit from your answer.

>  <Substance smiles>
Cc1ccsc1/C=C(\C(=O)c1ccc(OC(C)C)cc1)c1nc2ccccc2o1

>  <Measurement target>
Estrogen receptor (Homo sapiens) (UniProt P03372)

>  <Unit abbrev>
%

>  <Value observed>
40

$$$$
>  <Substance smiles>
O=C(Cn1c(=O)n(Cc2ccco2)c(=O)c2c3c(sc21)CCCCC3)Nc1ccccc1

>  <Measurement target>
Estrogen receptor (Homo sapiens) (UniProt P03372)

>  <Unit abbrev>
%

>  <Value observed>
39

$$$$

Next compound, please.
IN: Note down inhibition of ligand binding recorded for Cc1nnc(N/N=C/c2ccc(O)c([N+](=O)[O-])c2)[nH]c1=O
OUT: 20

* * *

- Measurement target: Estrogen receptor (Homo sapiens)
- Measurement protocol: ERalpha ligand binders by competition, primary screen, cell-based, Cos7 ERalpha-GFP, flow cytometry (AID 1211);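 also: 0% = DMSO vehicle wells and 100% = no E2-Alexa633 signal left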
- Stated conditions: fluorescent ligand competition, at 10 µM, stronger effect = higher value
The reader will find reported inhibition of ligand binding values listed item by item below.
Record the value in %, omitting the unit from your answer.

IN: Note down inhibition of ligand binding recorded for CCOc1ccc(N=C2NC(=O)S/C2=C\c2ccc(OC)cc2)cc1
OUT: 39

IN: Note down inhibition of ligand binding recorded for O=Cc1cn(-c2ccccc2)nc1-c1cc2c(ccc3ccccc32)oc1=O
OUT: 40

IN: Note down inhibition of ligand binding recorded for C/C(N)=C(/C#N)C(=O)CSc1nnc(-c2ccc(OC(F)F)cc2)o1
OUT: 20

* * *

- Measurement target: Estrogen receptor (Homo sapiens) (UniProt P03372)
- Measurement protocol: ERalpha ligand binders by competition, primary screen, cell-based, Cos7 ERalpha-GFP, flow cytometry (AID 1211);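 also: 0% = DMSO vehicle wells and 100% = no E2-Alexa633 signal left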
- Stated conditions: fluorescent ligand competition, at 10 µM, stronger effect = higher value
Values of inhibition of ligand binding greater than or equal to 30% map to t; values below map to f.

>  <Compound>
CC(Nc1ccc(N2CCNCC2)cc1[N+](=O)[O-])C12CC3CC(CC(C3)C1)C2 (centres undefined)

>  <Cat>
f

$$$$

IN: I'd appreciate it if you could say whether CCOc1cc(N2CCOCC2)c(OCC)cc1NC(=O)c1cc(-c2ccco2)nc2ccccc12 has inhibition of ligand binding at least equal to 30%.
OUT: f

* * *

- Measurement target: Estrogen receptor (Homo sapiens)
- Measurement protocol: ERalpha ligand binders by competition, primary screen, cell-based, Cos7 ERalpha-GFP, flow cytometry (AID 1211);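 also: 0% = DMSO vehicle wells and 100% = no E2-Alexa633 signal left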
- Stated conditions: fluorescent ligand competition, at 10 µM
Activity calls are given as the source filed them. The rule behind the calls is not given here.
Just give me one of these, please: active, inactive

The examples below pair each entry with its known result.
>  <Compound>
CCSc1nc2c(cnn2-c2ccc(C)cc2)c(=O)[nH]1

>  <Cat>
inactive

$$$$
>  <Compound>
COc1ccc(N2C(=O)c3ccccc3NC2c2ccc(OC)c(COc3ccccn3)c2)cc1 (stereo not drawn)

>  <Cat>
inactive

$$$$
>  <Compound>
Cc1noc(C)c1S(=O)(=O)N(CC(=O)O)c1ccc2c(c1)OCO2

>  <Cat>
inactive

$$$$
>  <Compound>
CC1(C)CC(=O)C=C(NC2CC(C)(C)NC(C)(C)C2)C1

>  <Cat>
inactive

$$$$
>  <Compound>
Cc1cc(N)ccc1N=Nc1c(C)n(C)n(-c2ccccc2)c1=O

>  <Cat>
inactive

$$$$
>  <Compound>
CCc1ccc(-c2nn(-c3ccccc3)cc2CSC(=N)N)cc1

>  <Cat>
inactive

$$$$

IN: Status in this test for C=CCn1c(COc2cccc(C)c2)nnc1SCC(=O)NC(=O)NCc1ccco1 ?
OUT: inactive

IN: Status in this test for Cc1ccc2occ(C3NC(C(=O)O)CS3)c(=O)c2c1 (stereo not drawn) ?
OUT: inactive

IN: Status in this test for CCCSc1nc(C)c(-c2csc(C(C#N)=C3CCCC3)n2)cc1C#N ?
OUT: inactive

IN: Status in this test for COc1ccc(N2C(=O)c3ccccc3NC2c2ccc(OC)c(CSc3ccccn3)c2)cc1 (stereo not drawn) ?
OUT: inactive

IN: Status in this test for Cc1ccc(/C=c2\sc3nc(-c4ccco4)nn3c2=O)o1 ?
OUT: inactive

IN: Status in this test for CCOc1cc(C2CC(=O)c3c(ccc4ccccc34)N2)ccc1O (stereo not drawn) ?
OUT: inactive

IN: Status in this test for CCOc1ccccc1C1C(C#N)=C(N)Nc2onc(-c3ccccc3)c21 (stereo not drawn) ?
OUT: inactive
